# experimental.target: human orexin-2 receptor (Homo sapiens (Human))
# Sequence (O43614 whole entry): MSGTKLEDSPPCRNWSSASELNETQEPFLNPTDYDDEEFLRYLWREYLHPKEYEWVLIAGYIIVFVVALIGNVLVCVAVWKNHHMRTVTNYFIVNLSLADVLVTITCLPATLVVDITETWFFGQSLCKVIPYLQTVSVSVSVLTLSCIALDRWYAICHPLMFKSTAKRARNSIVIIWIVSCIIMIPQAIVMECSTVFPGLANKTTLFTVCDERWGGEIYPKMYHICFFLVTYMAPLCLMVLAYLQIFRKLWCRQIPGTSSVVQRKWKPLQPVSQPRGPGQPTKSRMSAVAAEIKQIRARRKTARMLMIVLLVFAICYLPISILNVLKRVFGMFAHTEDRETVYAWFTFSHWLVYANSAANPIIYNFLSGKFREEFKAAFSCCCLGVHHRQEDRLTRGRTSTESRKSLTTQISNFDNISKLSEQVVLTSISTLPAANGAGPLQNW
# protocol: Human orexin 2 receptor radioligand binding ([3H]-EMPA competition)
# experimental.conditions: HEK293 cells stably expressing human orexin-2 receptor; [3H]-EMPA 5 nM final; read-out: OR-2 Ki
We label by threshold. Values of Ki strictly beneath 100 nM are 1. Values of 100 nM and up are 0.

molecule	experimental.target	qualitative.label
Cc1ccc(C(=O)N2CC[C@H]3CN(c4nccc(C(F)(F)F)n4)[C@H]3C2)c(-n2ccnn2)n1	human orexin-2 receptor (Homo sapiens (Human))	0
Cc1cc(C)nc(N2C[C@@H]3CCN(C(=O)c4c(F)cccc4-n4nccn4)C[C@@H]32)n1	human orexin-2 receptor (Homo sapiens (Human))	1
Cc1cc(C)nc(N2C[C@@H]3CCN(C(=O)c4ncccc4Br)C[C@@H]32)n1	human orexin-2 receptor (Homo sapiens (Human))	0
Cc1ccc(-n2nccn2)c(C(=O)N2CC[C@H]3CN(c4nc(C)cc(C)n4)[C@H]3C2)c1	human orexin-2 receptor (Homo sapiens (Human))	1
Cc1cc(C)nc(N2C[C@@H]3CCN(C(=O)c4ccc(C)nc4-n4ccnn4)C[C@@H]32)n1	human orexin-2 receptor (Homo sapiens (Human))	0
O=C(c1ccccc1-c1ccccc1)N1CCC2CN(c3nc4ccccc4o3)C2C1 (stereo not shown)	human orexin-2 receptor (Homo sapiens (Human))	0
Cc1cc(C)nc(N2C[C@@H]3CCN(C(=O)c4ncccc4-n4nccn4)C[C@@H]32)n1	human orexin-2 receptor (Homo sapiens (Human))	0

###

# experimental.target: human orexin-2 receptor (Homo sapiens (Human))
# protocol: Human orexin 2 receptor radioligand binding ([3H]-EMPA competition)
# experimental.conditions: HEK293 cells stably expressing human orexin-2 receptor; [3H]-EMPA 5 nM final; read-out: OR-2 Ki
quantity.name: Ki (nM)

compound	quantity.name	observed.measurement
Cc1cc(C)nc(N2C[C@@H]3CCN(C(=O)c4cc(F)ccc4-n4nccn4)C[C@@H]32)c1 [Example 128]	Ki	26
CNc1cc(N2C[C@@H]3CCN(C(=O)c4cc(F)ccc4-n4nccn4)C[C@@H]32)ncn1 [Example 190]	Ki	1100
Cc1cc(C)nc(N2C[C@@H]3CCN(C(=O)c4ccccc4-c4ncccn4)C[C@@H]32)n1 [Example 28]	Ki	21
O=C(c1cccc(F)c1-c1ncccn1)N1CC[C@H]2CN(c3cc(C(F)(F)F)ccn3)[C@H]2C1 [Example 152]	Ki	223
Cc1cc(C)nc(N2C[C@@H]3CCN(C(=O)c4cccc5c4-c4ccccc4C5)C[C@@H]32)n1 [Example 167]	Ki	55
Cc1cccc(C(=O)N2CC[C@H]3CN(c4cc(N(C)C)ccn4)[C@H]3C2)c1-n1nccn1 [Example 141]	Ki	734
Cc1cc(C)nc(N2C[C@@H]3CCN(C(=O)c4ccccc4-c4ncn[nH]4)C[C@@H]32)n1 [Example 172]	Ki	48

###

# experimental.target: human orexin-2 receptor (Homo sapiens (Human))
# protocol: Human orexin 2 receptor radioligand binding ([3H]-EMPA competition)
# experimental.conditions: HEK293 cells stably expressing human orexin-2 receptor; [3H]-EMPA 5 nM final; read-out: OR-2 Ki
pKi: −log10 of the molar value.

compound	pKi
COc1ccc(C(=O)N2CC[C@H]3CN(c4cc(N(C)C)ccn4)[C@H]3C2)c(-n2nccn2)c1	5.05
Cc1cc(C)nc(N2CC3CN(C(=O)c4ccccc4Br)CC32)n1 (centres unmarked)	5.98
COc1ccc(-n2nccn2)c(C(=O)N2CC[C@H]3CN(c4nc(C)cc(C)n4)[C@H]3C2)c1	7.80
CN(C)c1nc(N2C[C@@H]3CCN(C(=O)c4c(F)cccc4-n4nccn4)C[C@@H]32)cc(C(F)(F)F)n1	8.00
Cc1nccnc1N1C[C@@H]2CCN(C(=O)c3cccc(F)c3-n3nccn3)C[C@@H]21	5.00
Cc1cc(N2C[C@@H]3CCN(C(=O)c4ccc(C)nc4-n4ccnn4)C[C@@H]32)nc(C(F)(F)F)n1	6.28
CCOc1ccc2ccccc2c1C(=O)N1CC2CN(c3nc(OC)cc(OC)n3)C2C1 (centres unmarked)	6.96
Cc1cnc(-n2ccnn2)c(C(=O)N2CC[C@H]3CN(c4nc(C)cc(C)n4)[C@H]3C2)c1	6.55
Nc1cc(N2C[C@@H]3CCN(C(=O)c4cc(F)ccc4-n4nccn4)C[C@@H]32)nc(N)n1	5.85
O=C(c1ccc(F)cc1-n1nccn1)N1CC[C@H]2CN(c3nc4cc(Cl)ccc4o3)[C@H]2C1	7.23
COc1ccc(C(=O)N2CC[C@H]3CN(c4nc(C)cc(C)n4)[C@H]3C2)c(-n2nccn2)c1	6.82
COc1ccnc(N2CC3CN(C(=O)c4ccccc4-c4cccs4)CC32)n1 (centres unmarked)	6.91
Cc1cc(N2C[C@@H]3CCN(C(=O)c4c(F)cccc4-n4nccn4)C[C@@H]32)nc(C(F)(F)F)n1	7.89
CN(C)c1cc(N2C[C@@H]3CCN(C(=O)c4cc(F)ccc4-n4nccn4)C[C@@H]32)ncn1	6.96
Cc1cccc(N2C[C@@H]3CCN(C(=O)c4cc(F)ccc4-n4nccn4)C[C@@H]32)n1	6.83
Cc1ccc(C)c(S(=O)(=O)N2CCC3CN(c4nccc(-c5ccccc5)n4)C3C2)c1 (centres unmarked)	5.97
CN(C)c1nc(N2C[C@@H]3CCN(C(=O)c4cc(F)ccc4-n4nccn4)C[C@@H]32)cc(C(F)(F)F)n1	7.82
O=C(c1ccccc1-c1cccs1)N1CC[C@H]2CN(c3cnc4ccccc4n3)[C@H]2C1	8.15
O=C(c1ccccc1-c1cccnc1)N1CC[C@H]2CN(c3cnc4ccccc4n3)[C@H]2C1	6.94
CNc1nc(C)cc(N2C[C@@H]3CCN(C(=O)c4cc(F)ccc4-n4nccn4)C[C@@H]32)n1	6.51
CCOc1ccc2ccccc2c1C(=O)N1CC[C@H]2CN(c3nc(C)cc(C)n3)[C@H]2C1	8.22
CN(C)c1nc(N2C[C@@H]3CCN(C(=O)c4ccc(F)cc4-n4nccn4)C[C@@H]32)cc(C(F)(F)F)n1	7.80
Cc1cc(C)nc(N2C[C@@H]3CCN(C(=O)c4ccc(F)cc4-n4nccn4)C[C@@H]32)n1	7.89
Cc1cc(C)nc(N2C[C@@H]3CCN(C(=O)c4cc(C)c(C)nc4-n4nccn4)C[C@@H]32)n1	6.64
Cc1ccc(C)c(S(=O)(=O)N2CCC3CN(c4cnc5ccccc5n4)C3C2)c1 (centres unmarked)	5.42
Cc1cc(C)nc(N2C[C@@H]3CCN(C(=O)c4c(-c5ccccc5)noc4C)C[C@@H]32)n1	6.31
Cc1cc(N2C[C@@H]3CCN(C(=O)c4cc(F)ccc4-n4nccn4)C[C@@H]32)nc(C(F)(F)F)n1	7.47
Cc1cc(N2C[C@@H]3CCN(C(=O)c4c(F)cccc4-c4ncccn4)C[C@@H]32)nc(C(F)(F)F)n1	7.08
Cc1cc(C)nc(N2C[C@@H]3CCN(C(=O)c4c(F)cccc4-c4ncccn4)C[C@@H]32)n1	7.54
